Data provenance is the supplement of paper PMC11451515.

# System: NOMO1
# PROCEDURE SUMMARY: AUC of viability dose-response curve (% viability x log10 dose units); higher = less sensitive
# PARTICULARS: HPLM + 10% dialyzed FBS; 48 h
AUC of viability dose-response curve: recorded values
MEASURED PARAMETER: AUC of viability dose-response curve

> print(dat)
                                    compound  recorded.number
 1    CCCCOCCOc1nc(-c2ccc(C(=O)O)c(F)c2)sc1C              420
 2  COC1=CC=C(C(=C1)OC(C)C)C/2=N/[C@@H]([C@@H](N2C(=O)N3CCNC(=O)C3)C4=CC=C(Cl)C=C4)C5=CC=C(Cl)C=C5              409
 3  CC(C)(O)CC(=O)NCCn1ccc2ncnc(Nc3ccc(Oc4cccc(C(F)(F)F)c4)c(Cl)c3)c21              415
 4                 C/C=C/C(=O)N(CC)c1ccccc1C              393
 5  Cc1cccc(Nc2ccncc2[S+](=O)([O-])NC(=O)NC(C)C)c1              442
 6  COc1cccc2c1C(=O)c1c(O)c3c(c(O)c1C2=O)C[C@@](O)(C(=O)CO)C[C@@H]3O[C@H]1C[C@H](N)[C@H](O)[C@H](C)O1              367
 7  CCCCCCCCCCCCCC(=O)N[C@H](CO)[C@H](O)c1ccc([N+](=O)[O-])cc1              342
 8             CCc1ccc(/C=C2/SC(=S)NC2=O)cc1              377
 9       OCC(O)C(O)C(O)CO (stereo not given)              430
10  c1nc2c(NC3CCCCC3)nc(Nc3ccc(N4CCOCC4)cc3)nc2[nH]1              403

----------
# Tested on: SEM cells
# PROCEDURE SUMMARY: cell viability relative to DMSO control; higher = less cytotoxic
# PARTICULARS: HPLM + 10% dialyzed FBS; 48 h; 0.00702 µM
cell viability: recorded values

COMPOUND	TARGET OR TEST SYSTEM	cell viability (%)
CC[C@H]1OC(=O)[C@H](C)C(=O)[C@H](C)[C@@H](O[C@H]2O[C@H](C)C[C@H](N(C)C)[C@H]2O)[C@](C)(OC)C[C@@H](C)C(=O)[C@H](C)[C@H]2N(CCCCn3cnc(-c4cccnc4)c3)C(=O)O[C@]12C	SEM cells	136
COC(=O)C\1=C(C)\N\C(=C(/C1C2=CC=CC3=NON=C23)C(=O)OC(C)C)C (stereo not drawn)	SEM cells	97.7
O=C(O)C(=O)c1cn(Cc2ccccc2)c2ccc(-c3ccc(OC(F)(F)F)cc3)cc12	SEM cells	116
Cc1coc2c1C(=O)C(=O)c1c-2ccc2c1CCCC2(C)C	SEM cells	104
CCc1ccc(/C=C2/SC(=S)NC2=O)cc1	SEM cells	87.9
Nc1c2c(nc3ccccc13)CCCC2	SEM cells	118
CCOC(=O)C(C)OC1=CC=CC2=C1\C=C/N(CC(=O)NC3=CC=C4OCCOC4=C3)C2=O (stereo not drawn)	SEM cells	92.1
CC(C)OC(=O)[C@H](C)N[P@](=O)(OC[C@H]1O[C@@H](N2\C=C/C(=O)NC2=O)[C@](C)(F)[C@@H]1O)OC3=CC=CC=C3	SEM cells	122

----------
cell viability: recorded values
# Tested on: NOMO1
# PROCEDURE SUMMARY: cell viability relative to DMSO control; higher = less cytotoxic
# PARTICULARS: HPLM + 10% dialyzed FBS; 48 h; 0.19 µM
MEASURED PARAMETER: cell viability (%)

COMPOUND	TARGET OR TEST SYSTEM	MEASURED PARAMETER	MEASURE UNIT	RECORDED NUMBER
Nc1c2c(nc3ccccc13)CCCC2	NOMO1	cell viability	%	100
CCOC(=O)C(C)OC1=CC=CC2=C1\C=C/N(CC(=O)NC3=CC=C4OCCOC4=C3)C2=O (centres undefined)	NOMO1	cell viability	%	98.5
CC(C)(O)CC(=O)NCCn1ccc2ncnc(Nc3ccc(Oc4cccc(C(F)(F)F)c4)c(Cl)c3)c21	NOMO1	cell viability	%	98.9
CCCCN(CCCC)CC(O)c1cc(Cl)cc2c1-c1ccc(Cl)cc1/C2=C/c1ccc(Cl)cc1 (centres undefined)	NOMO1	cell viability	%	107
CC[C@@H]([C@H](C)O)n1ncn(-c2ccc(N3CCN(c4ccc(OCC5CO[C@@](Cn6cncn6)(c6ccc(F)cc6F)C5)cc4)CC3)cc2)c1=O (some centres undefined)	NOMO1	cell viability	%	98.2
C=CC(=O)Nc1cc2c(Nc3ccc(F)c(Cl)c3)ncnc2cc1OCCCN1CCOCC1	NOMO1	cell viability	%	104
N[C@@H]1CONC1=O	NOMO1	cell viability	%	107
Cc1ccc([S+](=O)([O-])OCC(=O)Nc2ccc(C(=O)O)c(O)c2)cc1	NOMO1	cell viability	%	145
O=C(O)C(=O)c1cn(Cc2ccccc2)c2ccc(-c3ccc(OC(F)(F)F)cc3)cc12	NOMO1	cell viability	%	108
Cc1ccnc2c1NC(=O)c1cccnc1N2C1CC1	NOMO1	cell viability	%	112
CCCCOc1c(C(=O)c2c(F)cc(C)cc2F)cnc2[nH]ncc12	NOMO1	cell viability	%	109
C[C@@H](CN1CC(=O)NC(=O)C1)N1CC(=O)NC(=O)C1	NOMO1	cell viability	%	55.7
Cc1coc2c1C(=O)C(=O)c1c-2ccc2c1CCCC2(C)C	NOMO1	cell viability	%	105
Cc1ccccc1C(=O)Nc1ccc(C(=O)N2CCCC(O)c3cc(Cl)ccc32)c(C)c1 (centres undefined)	NOMO1	cell viability	%	121
COC(=O)C\1=C(C)\N\C(=C(/C1C2=CC=CC3=NON=C23)C(=O)OC(C)C)C (centres undefined)	NOMO1	cell viability	%	108
CCCNC(=O)Nc1ccc(Oc2ncnc3cc(OC)c(OC)cc23)cc1Cl	NOMO1	cell viability	%	87.9
NC(=O)c1ccc(N(C(N)=O)c2c(F)cccc2F)nc1-c1ccc(F)cc1F	NOMO1	cell viability	%	115
CNc1nc(Nc2cnn([C@H]3CCN(C4COC4)C[C@@H]3F)c2Cl)ncc1C(F)(F)F	NOMO1	cell viability	%	36.8
CC12CC3CC(C)(C1)CC(N)(C3)C2	NOMO1	cell viability	%	139

----------
# System: P12-Ichikawa
# PROCEDURE SUMMARY: cell viability relative to DMSO control; higher = less cytotoxic
# PARTICULARS: HPLM + 10% dialyzed FBS; 48 h; 0.000781 µM
MEASURED PARAMETER: cell viability (%)

> print(dat)
                                   compound  measured.parameter  recorded.number
1  COc1ccc2c(c1)[C@]13CCCCC1C(C2)N(C)CC3 (stereo not given in full)      cell viability              107
2  CCOC(=O)C(C)OC1=CC=CC2=C1\C=C/N(CC(=O)NC3=CC=C4OCCOC4=C3)C2=O (stereo not given)      cell viability             89.3
3  Cc1cc2c(C(N)=O)cccc2n1-c1nc2c(c(NCc3ccccc3)n1)COCC2      cell viability             99.5
4  O=C(CCCN1CCN(c2ccc(F)cc2)CC1)NC1c2ccccc2CSc2ccccc21 (stereo not given)      cell viability              120
5  O=C(O)C(=O)c1cn(Cc2ccccc2)c2ccc(-c3ccc(OC(F)(F)F)cc3)cc12      cell viability              106

----------
# Test system: NOMO1
# PROCEDURE SUMMARY: cell viability relative to DMSO control; higher = less cytotoxic
# PARTICULARS: HPLM + 10% dialyzed FBS; 48 h; 0.569 µM
cell viability: recorded values

COMPOUND	TARGET OR TEST SYSTEM	MEASURE UNIT	cell viability
C[C@@H]1CCO[C@H]2CN\3/C=C(/C(=O)NCC4=C(F)C=C(F)C=C4)C(=O)\C(=C3C(=O)N12)O	NOMO1	%	101
Nc1ccc([S+](=O)([O-])Nc2ccnn2-c2ccccc2)cc1	NOMO1	%	100
O=C(O)c1cc(/N=N/c2ccc([S+](=O)([O-])Nc3ccccn3)cc2)ccc1O	NOMO1	%	104
CC[C@@H]([C@H](C)O)n1ncn(-c2ccc(N3CCN(c4ccc(OCC5CO[C@@](Cn6cncn6)(c6ccc(F)cc6F)C5)cc4)CC3)cc2)c1=O (stereo not given in full)	NOMO1	%	109
C=C[C@H]1CN2CCC1C[C@@H]2C(O)c1ccnc2ccc(OC)cc12 (stereo not given in full)	NOMO1	%	128
CCOC(=O)\C1=C\[C@]2(CC)CCCN3CCC4=C([C@H]23)[N]1C5=C4C=CC=C5	NOMO1	%	131
Cc1ccc([S+](=O)([O-])OCC(=O)Nc2ccc(C(=O)O)c(O)c2)cc1	NOMO1	%	128
CC12CC3CC(C)(C1)CC(N)(C3)C2	NOMO1	%	134
CC(C)(O)CC(=O)NCCn1ccc2ncnc(Nc3ccc(Oc4cccc(C(F)(F)F)c4)c(Cl)c3)c21	NOMO1	%	107
Cc1csc(-c2nnc(Nc3ccc(Oc4ncccc4-c4ccnc(N)n4)cc3)c3ccccc23)c1	NOMO1	%	99.5
CCCCN(CCCC)CC(O)c1cc(Cl)cc2c1-c1ccc(Cl)cc1/C2=C/c1ccc(Cl)cc1 (stereo not given)	NOMO1	%	90.5
COC(=O)C\1=C(C)\N\C(=C(/C1C2=CC=CC3=NON=C23)C(=O)OC(C)C)C (stereo not given)	NOMO1	%	96.3
COc1cc[nH]c2ncc(C(=O)C(=O)N3CCN(C(=O)c4ccccc4)C[C@H]3C)c1-2	NOMO1	%	106
C=CC(=O)Nc1cc2c(Nc3ccc(F)c(Cl)c3)ncnc2cc1OCCCN1CCOCC1	NOMO1	%	108
Oc1nc(-c2ccc(C(F)(F)F)cc2)nc2c1CSCC2	NOMO1	%	111
